- SUBJECT_OF_TEST: Amine oxidase [flavin-containing] B (Homo sapiens, UniProt P27338)
- Sequence (P27338 whole entry): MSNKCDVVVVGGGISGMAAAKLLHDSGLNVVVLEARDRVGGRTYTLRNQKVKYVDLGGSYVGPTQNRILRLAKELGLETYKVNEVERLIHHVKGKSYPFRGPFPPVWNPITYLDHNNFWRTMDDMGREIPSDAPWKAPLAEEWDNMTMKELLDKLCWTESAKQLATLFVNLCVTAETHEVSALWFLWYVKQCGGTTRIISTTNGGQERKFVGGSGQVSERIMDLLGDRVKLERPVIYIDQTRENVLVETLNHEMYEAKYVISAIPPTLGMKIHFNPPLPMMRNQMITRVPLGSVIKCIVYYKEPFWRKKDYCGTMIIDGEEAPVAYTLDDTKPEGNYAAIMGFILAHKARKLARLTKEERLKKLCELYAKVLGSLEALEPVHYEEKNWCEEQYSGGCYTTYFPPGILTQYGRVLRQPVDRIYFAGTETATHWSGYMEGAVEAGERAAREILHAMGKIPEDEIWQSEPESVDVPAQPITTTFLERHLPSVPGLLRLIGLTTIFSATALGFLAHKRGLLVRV
- METHOD_SUMMARY: Inhibition of human recombinant MAO-B using tyramine as substrate by ELISA
- Assay type: toxicity
OUTCOME_MEASURE: IC50 (µM)
State just the number; it will be interpreted in µM.

Prompt: Find the measured IC50: item "O=C1O[C@H](Cn2ccnn2)CN1c1ccc(N2CCOCC2)c(F)c1" , target or system Amine oxidase [flavin-containing] B (Homo sapiens, UniProt P27338).
Completion: 15.4

* * *

- SUBJECT_OF_TEST: UniProt P27338
- METHOD_SUMMARY: Inhibition of human recombinant MAO-B using benzylamine as substrate
- Assay type: toxicity
OUTCOME_MEASURE: log10(IC50) (log10 of the value in µM)
All values: base-10 log of IC50 in µM.

O=C(NC[C@H]1CN(c2ccc(N3CCOCC3)c(F)c2)C(=O)O1)C1CC1; 1.48
O=C1O[C@@H](CNS(=O)(=O)C2CC2)CN1c1ccc(N2CCOCC2)c(F)c1; 1.06

Prompt: Please tell me: log10(IC50) of "CC(C)(C)c1ccc(S(=O)(=O)NC[C@H]2CN(c3ccc(N4CCOCC4)c(F)c3)C(=O)O2)cc1" , system UniProt P27338?
Completion: 1.12

Prompt: Item: "O=C(NC[C@H]1CN(c2ccc(N3CCOCC3)c(F)c2)C(=O)O1)c1cccs1" Test system: UniProt P27338 Read-out: log10(IC50) Value: ?
Completion: 1.52

Prompt: # value lookup — system UniProt P27338, readout log10(IC50), item "CS(=O)(=O)NC[C@H]1CN(c2ccc(N3CCOCC3)c(F)c2)C(=O)O1"
Completion: 0.47

Prompt: // map "O=C1O[C@@H](CNS(=O)(=O)c2cccs2)CN1c1ccc(N2CCOCC2)c(F)c1" to recorded log10(IC50) (system: UniProt P27338)
Completion: 1.44

Prompt: Write down the reported log10(IC50) of "CCCCS(=O)(=O)NC[C@H]1CN(c2ccc(N3CCOCC3)c(F)c2)C(=O)O1" , test system: UniProt P27338.
Completion: 1.40

The origin of these recorded values is ChEMBL document CHEMBL5532742.
